The reported measurements were obtained from patent US12310946B2.

- Tested on: P-gp and BCRP
- protocol details: Caco-2 transcellular transport study, efflux ratio with and without P-gp and BCRP inhibitors
- Format: in vitro ADME
- reported conditions: human, Caco-2; in presence or absence of inhibitors
measurement label: efflux ratio

Record `CC1=NN(c2ccccc2)C(=O)C1` has P-gp and BCRP efflux ratio equal to ≤ 2

----------
- protocol details: Clinical study #11: PK of edaravone oral formulation (formula #3) via nasopharyngeal gastric tube vs oral in healthy adults
- Type: in vivo, human
- reported conditions: human, plasma, other: nasopharyngeal gastric tube (NG tube), 105 mg, formula #3 (105 mg), Nasopharyngeal gastric tube, fasted (N = 36), mean; read-out: Cmax
measurement label: Cmax (ng/mL)
One number for each entry, in ng/mL.

What the record says about CC1=NN(c2ccccc2)C(=O)C1 [Edaravone, 3-methyl-1-phenyl-2-pyrazolin-5-one] : Cmax is 2780
